Data origin: paper PMC10786891

# Measurement target: T1, EsCas13d, nuclease-dead (Eubacterium siraeum, UniProt B0MS50, R295A;H300A;R849A;H854A)
# T1 sequence: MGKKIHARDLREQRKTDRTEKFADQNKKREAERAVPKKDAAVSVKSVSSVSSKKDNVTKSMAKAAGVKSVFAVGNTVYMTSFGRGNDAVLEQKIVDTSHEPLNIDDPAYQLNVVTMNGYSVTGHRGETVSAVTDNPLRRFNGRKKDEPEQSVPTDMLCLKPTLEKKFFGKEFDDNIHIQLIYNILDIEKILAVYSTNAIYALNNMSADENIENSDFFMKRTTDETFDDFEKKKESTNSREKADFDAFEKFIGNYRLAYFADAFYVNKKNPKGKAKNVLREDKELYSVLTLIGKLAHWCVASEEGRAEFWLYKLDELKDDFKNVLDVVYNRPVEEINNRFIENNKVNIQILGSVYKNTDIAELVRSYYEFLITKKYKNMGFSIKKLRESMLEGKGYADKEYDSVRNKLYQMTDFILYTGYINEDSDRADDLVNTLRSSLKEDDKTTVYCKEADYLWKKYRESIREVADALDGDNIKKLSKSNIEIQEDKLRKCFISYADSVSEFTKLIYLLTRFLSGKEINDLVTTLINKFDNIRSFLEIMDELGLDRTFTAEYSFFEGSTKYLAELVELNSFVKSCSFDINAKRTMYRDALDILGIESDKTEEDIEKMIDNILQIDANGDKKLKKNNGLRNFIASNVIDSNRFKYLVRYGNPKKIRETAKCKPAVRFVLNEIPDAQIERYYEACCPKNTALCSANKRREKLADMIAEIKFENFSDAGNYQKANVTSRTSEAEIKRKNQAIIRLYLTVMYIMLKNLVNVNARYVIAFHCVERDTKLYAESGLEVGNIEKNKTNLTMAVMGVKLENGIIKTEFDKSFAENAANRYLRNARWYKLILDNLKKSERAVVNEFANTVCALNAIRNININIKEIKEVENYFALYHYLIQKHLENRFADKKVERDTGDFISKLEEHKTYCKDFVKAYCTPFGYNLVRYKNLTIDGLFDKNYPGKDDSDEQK
# Assay procedure: crRNA (strand 1, pre-loaded); Mg2+; 40 mM Tris-HCl pH 7.5, 150 mM NaCl, 6 mM MgCl2, 1 mM DTT, 0.1% Tween-20, 0.2 mg/ml BSA; 25 C; 10 min per concentration, then washed
# Measurement conditions: tags: His6-TwinStrep-SUMO cleaved; N-terminal SNAP kept (SNAP-Surface 488); label: 3' end held by stalled T7 RNA polymerase
pKd: −log10 of the molar value.
This listing pairs binders with measured pKd.
Measured parameter: pKd

target 2 MT 5'PFS AGU 3'PFS AUC (mixed) RNA 1: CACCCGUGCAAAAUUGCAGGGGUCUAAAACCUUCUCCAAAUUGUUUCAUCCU RNA 2: GGGAAUGGAUCCACAUCUACGAAUUCAGUAGGAUGAAACAAUUUGGAGAAGAUCAGAUCGGAAGAGCACACGU : 7.78
target 1 G13U,A16G (mixed) RNA 1: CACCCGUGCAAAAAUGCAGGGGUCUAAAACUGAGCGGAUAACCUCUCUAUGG RNA 2: GGGAAUGGAUCCACAUCUACGAAUUCGUACCAUAGGGAUGUUAUCCGCUCACCGAGAUCGGAAGAGCACACGU : 7.00
target 2 MT 5'PFS GCG 3'PFS UUC (mixed) RNA 1: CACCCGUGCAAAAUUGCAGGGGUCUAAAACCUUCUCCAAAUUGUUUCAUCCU RNA 2: GGGAAUGGAUCCACAUCUACGAAUUCGCGAGGAUGAAACAAUUUGGAGAAGUUCAGAUCGGAAGAGCACACGU : 7.68
target 2 MT 5'PFS AAU 3'PFS CAC (mixed) RNA 1: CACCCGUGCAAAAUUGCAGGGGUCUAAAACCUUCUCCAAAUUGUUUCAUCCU RNA 2: GGGAAUGGAUCCACAUCUACGAAUUCAAUAGGAUGAAACAAUUUGGAGAAGCACAGAUCGGAAGAGCACACGU : 8.28
target 1 insG 3' of 22,insA 3' of 2 (mixed) RNA 1: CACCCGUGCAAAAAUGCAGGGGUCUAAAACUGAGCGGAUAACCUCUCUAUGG RNA 2: GGGAAUGGAUCCACAUCUACGAAUUCGUACGCAUAGAGAGGUUAUCCGCUCAACCGAGAUCGGAAGAGCACACGU : 7.54
target 2 MT 5'PFS UCG 3'PFS CCA (mixed) RNA 1: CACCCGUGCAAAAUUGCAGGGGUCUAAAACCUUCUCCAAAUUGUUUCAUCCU RNA 2: GGGAAUGGAUCCACAUCUACGAAUUCUCGAGGAUGAAACAAUUUGGAGAAGCCAAGAUCGGAAGAGCACACGU : 7.51
target 1 insG 3' of 16,insU 3' of 9 (mixed) RNA 1: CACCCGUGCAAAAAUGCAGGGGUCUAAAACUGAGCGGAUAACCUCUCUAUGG RNA 2: GGGAAUGGAUCCACAUCUACGAAUUCGUACCAUAGAGGAGGUUAUUCCGCUCACCGAGAUCGGAAGAGCACACGU : 7.54
target 1 U3C,A9G (mixed) RNA 1: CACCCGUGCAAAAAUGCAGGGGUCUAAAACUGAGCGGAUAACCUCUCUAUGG RNA 2: GGGAAUGGAUCCACAUCUACGAAUUCGUACCAUAGAGAGGUUGUCCGCCCACCGAGAUCGGAAGAGCACACGU : 7.52
